# SYSTEM UNDER TEST: hEdc3 (Homo sapiens, UniProt Q96F86)
# Sequence (Q96F86 whole entry): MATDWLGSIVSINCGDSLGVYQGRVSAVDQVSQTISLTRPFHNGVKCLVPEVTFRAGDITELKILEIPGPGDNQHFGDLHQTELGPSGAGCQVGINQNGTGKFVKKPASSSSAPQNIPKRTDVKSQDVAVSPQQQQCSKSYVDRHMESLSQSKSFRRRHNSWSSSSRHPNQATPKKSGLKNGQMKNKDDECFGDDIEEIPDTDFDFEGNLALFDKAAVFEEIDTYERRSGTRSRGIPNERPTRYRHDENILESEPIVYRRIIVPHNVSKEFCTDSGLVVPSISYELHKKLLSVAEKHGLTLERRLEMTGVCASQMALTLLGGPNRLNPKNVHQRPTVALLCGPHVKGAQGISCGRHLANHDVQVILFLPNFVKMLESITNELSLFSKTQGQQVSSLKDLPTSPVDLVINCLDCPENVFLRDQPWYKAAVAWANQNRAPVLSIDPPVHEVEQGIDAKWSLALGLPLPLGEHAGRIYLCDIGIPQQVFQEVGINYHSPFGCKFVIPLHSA
MEASURED PARAMETER: Kd (µM)
Respond with the bare value in µM.

Assay hEdc3 (Homo sapiens, UniProt Q96F86), sample `NC(=O)C1=CN([C@@H]2O[C@H](COP(=O)(O)OP(=O)(O)OC[C@H]3O[C@@H](n4cnc5c(N)ncnc54)[C@H](O)[C@@H]3O)[C@@H](O)[C@H]2O)C=CC1` , Kd read: 163

Source listed as paper PMC4059234.
